The measurements presented in this section are drawn from patent US10344017B2.

# Experimental system: ERK5 (Homo sapiens)
# Construct: made in house
# Sequence (Q13164 whole entry): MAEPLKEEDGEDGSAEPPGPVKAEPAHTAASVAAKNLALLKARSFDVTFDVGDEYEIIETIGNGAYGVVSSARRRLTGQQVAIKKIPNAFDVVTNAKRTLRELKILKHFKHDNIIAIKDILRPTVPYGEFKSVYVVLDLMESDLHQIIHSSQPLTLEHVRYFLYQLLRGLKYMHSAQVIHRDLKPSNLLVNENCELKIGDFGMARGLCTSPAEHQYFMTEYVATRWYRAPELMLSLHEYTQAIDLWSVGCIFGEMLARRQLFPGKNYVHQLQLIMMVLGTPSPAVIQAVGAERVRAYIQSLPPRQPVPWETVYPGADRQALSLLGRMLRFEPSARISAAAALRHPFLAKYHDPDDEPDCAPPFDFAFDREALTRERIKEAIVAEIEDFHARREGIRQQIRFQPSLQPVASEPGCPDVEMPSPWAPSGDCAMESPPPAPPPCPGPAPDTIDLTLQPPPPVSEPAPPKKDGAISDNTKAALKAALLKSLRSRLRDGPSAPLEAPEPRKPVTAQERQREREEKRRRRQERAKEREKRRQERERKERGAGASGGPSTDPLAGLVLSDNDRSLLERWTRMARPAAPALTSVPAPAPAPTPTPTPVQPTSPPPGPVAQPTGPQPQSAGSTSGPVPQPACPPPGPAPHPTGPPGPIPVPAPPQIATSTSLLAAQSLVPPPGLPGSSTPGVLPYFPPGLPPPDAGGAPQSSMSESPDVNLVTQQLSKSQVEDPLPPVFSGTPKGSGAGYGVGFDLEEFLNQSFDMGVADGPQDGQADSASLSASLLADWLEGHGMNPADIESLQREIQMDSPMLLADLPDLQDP
# Procedure summary: ERK5 IMAP assay (fluorescence polarisation)
# Assay type: biochemical
# Setup conditions: average (e.g. geometric mean) where more than one data point; read-out: ERK5 IC50
Readout name: IC50 (µM)

Worked set:
[
  {
    "Molecule": "O=C(Nc1cccnc1N1CCCC1)c1cc(C(=O)c2c(F)cccc2Cl)c[nH]1",
    "IC50 (µM)": 7.98
  },
  {
    "Molecule": "O=C(Nc1cc[n+]([O-])cc1)c1cc(C(=O)c2c(F)cccc2F)c[nH]1",
    "IC50 (µM)": 11.5
  },
  {
    "Molecule": "O=C(NC1CCOCC1)c1cc(C(=O)c2c(F)cccc2Br)c[nH]1",
    "IC50 (µM)": 1.22
  },
  {
    "Molecule": "Cc1ncccc1NC(=O)c1cc(C(=O)c2c(F)cccc2Br)c[nH]1",
    "IC50 (µM)": 2.39
  }
]

A. O=C(Nc1ccnc(Cl)n1)c1cc(C(=O)c2c(F)cccc2Br)c[nH]1
B. O=C(Nc1ccc[n+]([O-])c1)c1cc(C(=O)c2c(F)cccc2F)c[nH]1
C. O=C(NC1CCNCC1)c1cc(C(=O)c2c(F)cccc2Br)c[nH]1
D. COc1ccc(Cl)c(C(=O)c2c[nH]c(C(=O)Nc3cnc(CN4CCNCC4)nc3)c2)c1F
Query :: Put these in order: smallest IC50 first, largest last. List each label, following the requested order.
Result :: D, C, A, B
(D: 0.0158 µM, C: 0.386 µM, A: 7.76 µM, B: 13.8 µM)
